- Tested on: Plasmodium yoelii (17×)
- assayDetails: Sporozoite induced test in mouse (causal prophylactic activity)
- Assay type: in vivo
- conditionParameters: sporozoite challenged CD-1 mice; single dose 4 hours before inoculation; oral administration
reportedEndpoint: Minimum Protective Dose Against P. yoelii

> print(dat)
                                   molecule                      tgt  assayresult
1  CC(C)N1C(=O)C(=O)NC1=NC(=NC(=O)OC(C)(C)C)Nc1ccc(Cl)c(Cl)c1 [Compound 3c]  Plasmodium yoelii (17×)     40 mg/kg
2  COc1cc(C)c2c(Oc3cccc(C(F)(F)F)c3)c(OC)cc(NC(C)CCCN)c2n1 (centres unmarked) [Tafenoguine, reference compound]  Plasmodium yoelii (17×)    2.5 mg/kg
3  CCCCCCOC(=O)N=C(N=C1NC(=O)C(=O)N1C(C)C)Nc1ccc(Cl)c(Cl)c1 [Compound 3e]  Plasmodium yoelii (17×)     40 mg/kg
4  CC(C)NC(=NC(=O)OC(C)(C)C)N=C1NC(=O)C(=O)N1c1ccc(Cl)c(Cl)c1 [Compound 4c]  Plasmodium yoelii (17×)   1.25 mg/kg
5  CC(C)NC(=N)NC1=NC(=O)C(=O)N1c1ccc(Cl)c(Cl)c1 [Compound 4]  Plasmodium yoelii (17×)      5 mg/kg
6  CC(C)NC(=NC(=O)OCc1ccccc1)N=C1NC(=O)C(=O)N1c1ccc(Cl)c(Cl)c1 [Compound 4d]  Plasmodium yoelii (17×)     10 mg/kg
7  CC(C)N1C(=O)C(=O)N=C1NC(=N)Nc1ccc(Cl)c(Cl)c1 [Compound 3]  Plasmodium yoelii (17×)   >160 mg/kg
8  CC(C)COC(=O)N=C(N=C1NC(=O)C(=O)N1C(C)C)Nc1ccc(Cl)c(Cl)c1 [Compound 3b]  Plasmodium yoelii (17×)    >40 mg/kg

====

The entries below are paired with their reported Minimum Protective Dose Against P. yoelii.
- Tested on: Plasmodium yoelii (17×)
- assayDetails: Sporozoite induced test in mouse (causal prophylactic activity)
- Format: in vivo
- conditionParameters: sporozoite challenged CD-1 mice; single dose 4 hours before inoculation; oral administration
reportedEndpoint: Minimum Protective Dose Against P. yoelii (mg/kg)

> print(dat)
                                   compound  assayresult
1  CC(C)N1C(=O)C(=O)NC1=NC(=NC(=O)OCCOCc1ccccc1)Nc1ccc(Cl)c(Cl)c1          160
2  COc1cc(NC(C)CCCN)c2ncccc2c1 (stereo not shown) [Primaquine, reference compound]           40
3  CC(C)COC(=O)N=C(N=C1NC(=O)C(=O)N1c1ccc(Cl)c(Cl)c1)NC(C)C          2.5
4  CCCCCCOC(=O)N=C(N=C1NC(=O)C(=O)N1c1ccc(Cl)c(Cl)c1)NC(C)C            5
5  C=CCCOC(=O)N=C(N=C1NC(=O)C(=O)N1C(C)C)Nc1ccc(Cl)c(Cl)c1          160
6  CCOC(=O)N=C(N=C1NC(=O)C(=O)N1C(C)C)Nc1ccc(Cl)c(Cl)c1          2.5
7  C[C@H]1[C@@H](O)O[C@@H]2O[C@@]3(C)CC[C@H]4[C@H](C)CC[C@@H]1[C@@]24OO3 [Dihyroartemisinin, reference compound]          160
